Exercise: for every item that follows, state its recorded Bevacizumab IgG Yield (%).
biological target: Bevacizumab (Homo sapiens, UniProt P01857); construct: fused on or other part: humanised anti-VEGF-A VH domain N-terminal of the gamma-1 constant region (engineered, no UniProt entry); experiment: Microtiter plate chromatography of resins, Bevacizumab whole IgG (bound, yield, selectivity); format: binding, humanized; details: mass eluted / mass injected, whole IgG
Numbers only here, please. The scale is %.

In: Query: Bevacizumab IgG Yield (%); subject: NCCCNC(=O)c1cccc(C(=O)Nc2nnc(-c3ccco3)s2)c1
Out: 83

In: Entry to check: Cn1nc(NC(=O)c2cccc(C(=O)NCCCN)c2)c2ccccc21
Out: 88

In: Entry to check: COc1ccc(NC(=O)c2cc(-c3csc(C)n3)on2)cc1C(=O)NCCOCCOCC(=O)NCCOCCOCC(=O)NCCCN
Out: 100

In: Entry to check: COc1ccc(NC(=O)c2cn3ccsc3n2)cc1C(=O)NCCOCCOCC(=O)NCCCN
Out: 96

In: Entry to check: NCCCNC(=O)c1cccc(C(=O)Nc2ncc(-c3ccccc3)s2)c1
Out: 96

In: Entry to check: COc1ccc(NC(=O)c2cn3ccsc3n2)cc1C(=O)NCCOCCOCC(=O)NCCCCCCN
Out: 94

In: Entry to check: NCCCNC(=O)c1cccc(C(=O)Nc2nc(-c3ccccc3)cs2)c1
Out: 92

In: Entry to check: COc1ccc(NC(=O)c2cn3ccsc3n2)cc1C(=O)NCCOCCOCC(=O)NCCOCCOCC(=O)NCCCN
Out: 100

In: Entry to check: COc1ccc(NC(=O)c2cc(-c3ccco3)n(C)n2)cc1C(=O)NCCOCCOCC(=O)NCCOCCOCC(=O)NCCCN
Out: 100

In: Entry to check: COc1ccc(NC(=O)c2cn3ccsc3n2)cc1C(=O)NCCCNC(=O)CCCCCN
Out: 97

In: Entry to check: NCCCNC(=O)c1cccc(C(=O)Nc2nc3ccccc3s2)c1
Out: 83

In: Entry to check: COc1ccc(NC(=O)c2cn3ccsc3n2)cc1C(=O)NCCCCCC(=O)NCCOCCOCCN
Out: 98

In: Entry to check: COc1ccc(NC(=O)c2nnc(-c3ccco3)o2)cc1C(=O)NCCOCCOCC(=O)NCCOCCOCC(=O)NCCCN
Out: 100

In: Entry to check: COc1ccc(NC(=O)c2cn3ccsc3n2)cc1C(=O)NCCOCCOCCNC(=O)NCCOCCOCCN
Out: 100
